System: DU-145 prostate
Assay: NCI-60 one-dose screen, 48 h
Conditions: 10 µM unless noted
Protocol: Cells are grown in 96 well plates and exposed to the test compound for 48 hours. Compounds are tested at a single concentration, which is 10^-5 M for most compounds. The reported endpoint is percent growth (GI% or GIPRCNT), where numbers from 0 - 100% represent growth inhibition, and numbers from -100% - 0 represent cell death. For example, a value of 40 represents 60% growth inhibition. A value of 0 means no net growth occurred over the course of the experiment. […]
The panel holds about 83,000 compounds, 20% with a hit somewhere; the sample as a whole holds those more often. Active and inactive are the calls of the source. The calls were made as follows: active = growth percent below 10; inactive = the rest.
Hi! Could you answer with just one of these? active, inactive

Previously resolved entries follow.
INSERT INTO measurements (molecule, class) VALUES
  ('Fc1cc2c(cc1Cl)N(c1ncnc3ccc(-c4cnc5[nH]ncc5c4)cc13)CC2', 'inactive'),
  ('O=C1N(Cc2ccccc2Cl)c2ccccc2C12NN=C(c1cccc(Cl)c1)S2 (stereo not given)', 'active'),
  ('N#Cc1nn(-c2cc(=O)[nH]c3ccc(Cl)cc23)c(N)c1C#N', 'inactive'),
  ('CN1CCN(c2ccc(NC(=O)c3nc4ccc5[nH]ncc5c4c4c3CCCC4)cc2C(F)(F)F)CC1', 'active'),
  ('Cn1c(=O)c2[nH]c(N/N=C/c3ccccc3Br)nc2n(C)c1=O', 'inactive'),
  ('N#CC1C=CN(CC(N)=O)c2ccc3cccnc3c21 (stereo not given)', 'inactive'),
  ('Cc1nc2c(=O)[nH]c(SCC(=O)Nc3cccc(F)c3)nc2[nH]c1=O', 'inactive'),
  ('O=C1COCCN1c1ccc(Nc2nc(Cl)nc(OCc3cn(Cc4ccccc4)nn3)n2)cc1', 'inactive'),
  ('CC(C)(C)n1cc(-c2ccnc(NCCCNS(=O)(=O)c3ccc(F)cc3)c2)c(-c2cccc(F)c2)n1', 'inactive');

Next up:
q: Recorded test outcome, item COC(=O)/C=C1/SC(=Nc2ccc(C)cc2)N(CCc2c[nH]c3ccc(O)cc23)C1=O
a: inactive

The reported numbers originate from PubChem BioAssay (NCI).
